- System Tested: Rho-associated protein kinase 1 (Homo sapiens);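 note: reported values are mean percent inhibition of ROCK1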
- Run Conditions: at 1 µM
The entries below are paired with their reported inhibition.
Measure: inhibition (%)

1) NS(=O)(=O)c1ccc(NC=C2C(=O)Nc3ccc4ncsc4c32)cc1 55.1
2) Cc1ccc(Nc2ccnc(Nc3cccc(C(N)=O)c3)n2)cc1O 5.78
3) COc1cc(Nc2nccc(-c3cnn4ncccc34)n2)cc(OC)c1 8.16
4) CN(C)c1cc2c(Nc3ccc4c(cnn4Cc4ccccc4)c3)ncnc2cn1 2.38
5) COc1ccc(-c2nn3ncccc3c2-c2ccnc(Nc3cccc(C(F)(F)F)c3)n2)cc1 0.6
6) Cc1ccc(NC(=O)CC2CC2)cc1-c1ccc(C(=O)NCC2CC2)cc1 2.07
7) OCc1ccc(-c2nc(-c3ccccn3)c(-c3ccc4c(c3)OCO4)[nH]2)cc1 2.25
8) COc1cccc(-n2nc(C)c3c(N/N=C(\C)c4ccncc4)ncnc32)c1 -1.87
9) CCS(=O)(=O)c1ccc(OC)c(Nc2ncc(-c3cccc(OC)c3)o2)c1 2.35
10) COc1cc(/C=N/Nc2ncnc3c2cnn3C(C)C)ccc1O 4.3

###

The entries below are paired with their reported inhibition.
- System Tested: Platelet-derived growth factor receptor beta (Homo sapiens);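 note: reported value is the mean percent inhibition of the kinase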
- Run Conditions: at 0.1 µM
Measure: inhibition (%)

Compound	System Tested	Measure	Recorded Number
Cc1ccc(O)cc1Nc1ccnc2ccc(S(C)(=O)=O)cc12	Platelet-derived growth factor receptor beta (Homo sapiens)	inhibition	63.8
Cc1cc(Cl)cc2c1NC(=O)C2=NNc1ccc(S(N)(=O)=O)cc1	Platelet-derived growth factor receptor beta (Homo sapiens)	inhibition	2.83
NC(=O)c1cccc(Nc2nccc(Nc3cccc(F)c3)n2)c1	Platelet-derived growth factor receptor beta (Homo sapiens)	inhibition	11.5
Cc1ccc(NC(=O)CC2CC2)cc1-c1ccc(C(=O)NCC2CC2)cc1	Platelet-derived growth factor receptor beta (Homo sapiens)	inhibition	4.05
[O-][S+]1CCN(Cc2ccc(-c3ccc4ncnc(Nc5ccc(OCc6ccccc6)c(Cl)c5)c4c3)o2)CC1	Platelet-derived growth factor receptor beta (Homo sapiens)	inhibition	3.07
CN(c1ccc(NC(=O)Nc2ccc(OC(F)(F)F)cc2)cc1)c1ccnc(Nc2cccc(S(N)(=O)=O)c2)n1	Platelet-derived growth factor receptor beta (Homo sapiens)	inhibition	67.5
COc1cccc(-n2ncc3c(N/N=C/c4ccc(S(C)(=O)=O)cc4)ncnc32)c1	Platelet-derived growth factor receptor beta (Homo sapiens)	inhibition	52.4
N#Cc1cccc(Nc2nccc(-c3cnn4ncccc34)n2)c1	Platelet-derived growth factor receptor beta (Homo sapiens)	inhibition	27.2
N#Cc1c(NC(=O)c2ccccc2F)sc2c1CCCC2	Platelet-derived growth factor receptor beta (Homo sapiens)	inhibition	1.07
Oc1cccc(-c2nc(-c3ccccc3)[nH]c2-c2ccncc2)c1	Platelet-derived growth factor receptor beta (Homo sapiens)	inhibition	5.66
Cc1cc(-c2ccccn2)cc(C)c1/C=C/c1cncc(-c2nn[nH]n2)c1	Platelet-derived growth factor receptor beta (Homo sapiens)	inhibition	4.53
NS(=O)(=O)c1ccc(N/N=C2\C(=O)Nc3ccc(Cl)cc32)cc1	Platelet-derived growth factor receptor beta (Homo sapiens)	inhibition	11.1
Cc1ccc2c(-c3ccnc(Nc4cccc(C(F)(F)F)c4)n3)c(-c3ccccc3)nn2n1	Platelet-derived growth factor receptor beta (Homo sapiens)	inhibition	35.4
Nc1ccc(C#Cc2cncnc2Nc2ccc(OCc3cccc(F)c3)c(Cl)c2)cc1	Platelet-derived growth factor receptor beta (Homo sapiens)	inhibition	3.04
COc1cc2ncnc(Nc3ccc4c(cnn4Cc4ccccc4)c3)c2cc1OC	Platelet-derived growth factor receptor beta (Homo sapiens)	inhibition	3.39
COC(=O)c1cncc(/C=C/c2c(C)cc(O)cc2C)c1	Platelet-derived growth factor receptor beta (Homo sapiens)	inhibition	9.77
CN(C)c1cc2c(Nc3ccc4c(cnn4Cc4ccccc4)c3)ncnc2cn1	Platelet-derived growth factor receptor beta (Homo sapiens)	inhibition	-1
COc1cccc(-n2ncc3c(N/N=C/c4ccc(C)cc4)ncnc32)c1	Platelet-derived growth factor receptor beta (Homo sapiens)	inhibition	7.34
CCCN1CCCC(c2ccc(Nc3nc(Nc4cc(F)ccc4C(N)=O)c4cc[nH]c4n3)c(OC)c2)C1 (configuration not stated)	Platelet-derived growth factor receptor beta (Homo sapiens)	inhibition	6.16
CS(=O)(=O)Nc1cccc(-c2ccc3c(NC(=O)C4CC4)n[nH]c3c2)c1	Platelet-derived growth factor receptor beta (Homo sapiens)	inhibition	-2.19
FC(F)(F)c1ccc(-c2nn3ncccc3c2-c2ccnc(Nc3ccc4c(c3)OCCO4)n2)cc1	Platelet-derived growth factor receptor beta (Homo sapiens)	inhibition	9.78
ON=C1CCc2cc(-c3nc(C4CCNCC4)[nH]c3-c3ccncc3)ccc21	Platelet-derived growth factor receptor beta (Homo sapiens)	inhibition	4.22

###

- System Tested: Cyclin-dependent kinase 2 (Homo sapiens);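 note: mean inhibition of the CDK2–cyclin A kinase complex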
- Run Conditions: at 1 µM
Measure: inhibition (%)

1. CN(C)C(=O)O[C@@H]1CN[C@@H](C#Cc2cc3ncnc(Nc4ccc(OCc5cccc(F)c5)c(Cl)c4)c3s2)C1 7.43
2. CN(C)c1cc2c(Nc3ccc4c(cnn4Cc4ccccc4)c3)ncnc2cn1 4.21
3. Nc1nccc(C#Cc2cncnc2Nc2ccc(OCc3cccc(F)c3)c(Cl)c2)n1 1.37
4. Cc1ccc2c(-c3ccnc(Nc4cccc(C(F)(F)F)c4)n3)c(-c3ccccc3)nn2n1 3.14
5. C[C@@H](Oc1cc(-n2cnc3ccc(OCC4CCN(C)CC4)cc32)sc1C(N)=O)c1ccccc1C(F)(F)F 2.52
6. O=C1Nc2ccc(-c3cccnc3)cc2C1=Cc1cc(Br)c(O)c(Br)c1 1.15
7. Cc1cc(-c2ccccn2)cc(C)c1/C=C/c1cncc(-c2nn[nH]n2)c1 2.77
8. COc1cccc(-n2ncc3c(N/N=C/c4ccc(C)cc4)ncnc32)c1 11
9. CN(c1ccc(NC(=O)Nc2ccc(OC(F)(F)F)cc2)cc1)c1ccnc(Nc2cccc(S(N)(=O)=O)c2)n1 14.4
10. COc1cccc(-n2nc(C)c3c(N/N=C(\C)c4ccncc4)ncnc32)c1 7.56
11. CC(C)c1ccc(Nc2nccc(-c3cnn4ncccc34)n2)cc1 78.7
12. NS(=O)(=O)c1ccc(-c2cc3ccncc3cc2OCc2ccccc2)cc1 2.11
13. NS(=O)(=O)c1ccc(NC=C2C(=O)Nc3ccc4ncsc4c32)cc1 109
14. NS(=O)(=O)c1cccc(Nc2cc(-c3ccc(F)cc3)n[nH]2)c1 11.1
15. Cc1cc(O)cc(C)c1/C=C/c1cncc(C(=O)N(C)C)c1 0.67
16. NS(=O)(=O)c1cccc(-c2cc3ccncc3cc2OCc2ccccc2)c1 3.16
17. Cc1ccc(NC(=O)CC2CC2)cc1-c1ccc(C(=O)NCC2CC2)cc1 -1.13
18. NC(=O)c1cccc(Nc2nccc(Nc3cccc(F)c3)n2)c1 4.6
19. COc1ccc2ncnc(Nc3ccc(OCc4ccccc4)cc3)c2c1 -4.84
20. COc1cccc(-n2ncc3c(N/N=C/c4ccc(S(C)(=O)=O)cc4)ncnc32)c1 68
21. NS(=O)(=O)c1ccc(N/N=C2\C(=O)Nc3ccc(Cl)cc32)cc1 102

###

- System Tested: Leucine-rich repeat serine/threonine-protein kinase 2 (Homo sapiens) (UniProt Q5S007);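 note: mean percent inhibition of LRRK2 measured in the GSK PKIS kinase inhibitor set screen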
- Sequence (Q5S007 whole entry): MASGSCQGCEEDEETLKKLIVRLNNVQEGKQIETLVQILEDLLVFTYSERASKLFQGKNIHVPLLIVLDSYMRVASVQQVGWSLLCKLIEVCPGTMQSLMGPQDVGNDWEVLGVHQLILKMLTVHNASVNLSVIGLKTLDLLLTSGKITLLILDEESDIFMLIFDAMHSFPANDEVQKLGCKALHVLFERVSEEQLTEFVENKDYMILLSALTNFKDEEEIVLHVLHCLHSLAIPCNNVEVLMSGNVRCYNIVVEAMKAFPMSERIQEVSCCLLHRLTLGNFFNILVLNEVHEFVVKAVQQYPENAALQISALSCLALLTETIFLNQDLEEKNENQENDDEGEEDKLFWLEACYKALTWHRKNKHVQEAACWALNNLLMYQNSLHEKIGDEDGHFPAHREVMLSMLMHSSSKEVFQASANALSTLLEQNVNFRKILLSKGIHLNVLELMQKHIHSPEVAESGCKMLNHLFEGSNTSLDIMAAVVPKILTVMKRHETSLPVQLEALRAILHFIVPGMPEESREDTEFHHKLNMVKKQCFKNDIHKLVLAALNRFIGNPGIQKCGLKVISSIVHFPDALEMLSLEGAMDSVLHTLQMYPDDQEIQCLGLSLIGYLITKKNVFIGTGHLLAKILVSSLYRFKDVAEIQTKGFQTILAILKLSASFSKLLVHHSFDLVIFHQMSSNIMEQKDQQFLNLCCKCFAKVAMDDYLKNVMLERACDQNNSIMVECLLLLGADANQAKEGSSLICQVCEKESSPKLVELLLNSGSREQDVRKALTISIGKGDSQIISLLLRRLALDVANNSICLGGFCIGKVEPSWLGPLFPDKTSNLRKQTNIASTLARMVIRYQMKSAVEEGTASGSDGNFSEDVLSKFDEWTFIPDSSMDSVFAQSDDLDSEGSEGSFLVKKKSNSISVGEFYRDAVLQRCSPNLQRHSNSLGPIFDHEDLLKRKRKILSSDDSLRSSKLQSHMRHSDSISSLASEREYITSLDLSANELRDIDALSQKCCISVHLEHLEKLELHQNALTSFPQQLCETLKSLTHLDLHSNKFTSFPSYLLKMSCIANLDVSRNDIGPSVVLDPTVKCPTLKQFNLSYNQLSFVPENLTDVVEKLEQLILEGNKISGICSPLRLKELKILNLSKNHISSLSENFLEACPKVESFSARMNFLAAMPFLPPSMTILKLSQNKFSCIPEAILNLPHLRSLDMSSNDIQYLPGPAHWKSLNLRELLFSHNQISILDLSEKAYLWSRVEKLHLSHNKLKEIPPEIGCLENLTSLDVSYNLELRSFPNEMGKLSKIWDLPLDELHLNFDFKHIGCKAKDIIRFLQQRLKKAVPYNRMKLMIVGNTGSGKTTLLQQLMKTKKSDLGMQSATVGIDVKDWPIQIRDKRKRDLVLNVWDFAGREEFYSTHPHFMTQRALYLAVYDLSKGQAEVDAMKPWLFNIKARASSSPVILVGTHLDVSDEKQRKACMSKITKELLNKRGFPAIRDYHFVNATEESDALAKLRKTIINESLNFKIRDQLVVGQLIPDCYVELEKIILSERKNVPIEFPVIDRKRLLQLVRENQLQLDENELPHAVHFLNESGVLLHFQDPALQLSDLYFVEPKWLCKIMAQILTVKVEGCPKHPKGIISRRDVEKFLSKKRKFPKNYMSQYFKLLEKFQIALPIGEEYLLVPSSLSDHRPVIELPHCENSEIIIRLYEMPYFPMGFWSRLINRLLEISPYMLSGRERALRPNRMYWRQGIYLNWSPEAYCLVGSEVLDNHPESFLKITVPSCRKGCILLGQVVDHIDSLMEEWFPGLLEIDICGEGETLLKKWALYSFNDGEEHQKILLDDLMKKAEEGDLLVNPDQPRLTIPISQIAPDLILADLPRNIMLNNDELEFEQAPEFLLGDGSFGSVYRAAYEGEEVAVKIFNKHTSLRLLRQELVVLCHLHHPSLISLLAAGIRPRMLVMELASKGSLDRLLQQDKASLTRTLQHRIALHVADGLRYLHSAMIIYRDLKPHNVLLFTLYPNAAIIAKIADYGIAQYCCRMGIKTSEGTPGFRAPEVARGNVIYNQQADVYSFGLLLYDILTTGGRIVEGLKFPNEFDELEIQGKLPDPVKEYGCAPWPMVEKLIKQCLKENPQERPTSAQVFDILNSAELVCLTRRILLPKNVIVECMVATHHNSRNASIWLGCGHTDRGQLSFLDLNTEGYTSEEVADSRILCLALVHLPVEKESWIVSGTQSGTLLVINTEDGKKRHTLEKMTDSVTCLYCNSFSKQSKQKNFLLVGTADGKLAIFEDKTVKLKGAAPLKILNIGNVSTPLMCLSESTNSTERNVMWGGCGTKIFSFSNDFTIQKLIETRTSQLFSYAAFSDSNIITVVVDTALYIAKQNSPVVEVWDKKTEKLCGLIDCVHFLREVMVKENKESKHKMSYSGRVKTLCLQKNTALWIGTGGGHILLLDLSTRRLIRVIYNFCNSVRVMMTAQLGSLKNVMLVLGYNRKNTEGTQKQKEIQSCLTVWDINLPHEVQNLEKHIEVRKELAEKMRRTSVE
- Run Conditions: at 1 µM
Measure: inhibition (%)

1. N#Cc1cccc(Nc2nccc(-c3cnn4ncccc34)n2)c1 19.8
2. Cc1cc(Cl)cc2c1NC(=O)C2=NNc1ccc(S(N)(=O)=O)cc1 2.23
3. C[C@@H](Oc1cc(-n2cnc3ccc(OC[C@@H](O)CO)cc32)sc1C(N)=O)c1ccccc1Cl 17.3
4. CC(C)c1ccc2c(c1)NC(=O)/C2=N/Nc1ccc(S(N)(=O)=O)cc1 9.75
5. Nc1ccc(C#Cc2cncnc2Nc2ccc(OCc3cccc(F)c3)c(Cl)c2)cc1 2.94
6. Cc1ccc(C(=O)NC2CC2)cc1-c1ccc2[nH]ncc2c1 2.87
7. O=C1Nc2ccc(-c3cccnc3)cc2C1=Cc1cc(Br)c(O)c(Br)c1 22.3
8. O=S(=O)(CCOCc1ccc(-c2ccc3ncnc(Nc4ccc(OCc5cccc(F)c5)c(Cl)c4)c3c2)o1)c1ccccc1 9.06
9. CCS(=O)(=O)c1ccc(OC)c(Nc2nccc(N(C)c3ccc4c(C)n[nH]c4c3)n2)c1 22.5
10. NS(=O)(=O)c1cccc(Nc2cc(-c3ccc(F)cc3)n[nH]2)c1 10.5
11. CCn1c(-c2nonc2N)nc2ccc(F)cc21 8.92
12. CN(C)CCCn1c(-c2nonc2N)nc2cnccc21 2.14
13. Oc1cccc(-c2nc(-c3ccccc3)[nH]c2-c2ccncc2)c1 8.56
14. COc1cccc(-n2ncc3c(N/N=C/c4ccc(C)cc4)ncnc32)c1 18.8
15. COC(=O)c1ccc2c(c1)C(=Cc1cc(Br)c(O)c(Br)c1)C(=O)N2 88.5
16. N#Cc1c(NC(=O)c2ccccc2F)sc2c1CCCC2 1.84
17. COc1cc(Nc2nccc(-c3cnn4ncccc34)n2)cc(OC)c1 24.4
18. CCS(=O)(=O)c1ccc(OC)c(Nc2ncc(-c3cccc(OC)c3)o2)c1 20.2
19. CN(c1ccc(NC(=O)Nc2ccc(OC(F)(F)F)cc2)cc1)c1ccnc(Nc2cccc(S(N)(=O)=O)c2)n1 27.6
20. Cc1cc(O)cc(C)c1/C=C/c1cncc(C(=O)N(C)C)c1 7.82
21. FC(F)(F)c1ccc(-c2nn3ncccc3c2-c2ccnc(Nc3ccc4c(c3)OCCO4)n2)cc1 8.46

Ref: ChEMBL document CHEMBL1961873
